Entries and their CC50 at 48 h
Experiment: Cytotoxicity, MTT assay
Type: cell-based
Conditions: hamster spleen cells, 48 h exposure
Protocol: Hamster spleen cells were used to test cytotoxicity. The cells were kindly provided by Dr. Rosy Iara Maciel de Azambuja Ribeiro from of Laboratory of Experimental Pathology/UFSJ. The cells were cultivated in saline solution (NaCl 0.9%; Synth, Brazil) and maintained at 37°C in an incubator with an atmosphere containing 5% CO2 (Thermo Fisher Scientific, Waltham, USA). […] The selectivity of Bex analogs and antileishmanial agents was determined to evaluate the safety of compounds. […]
Entry rule: numbers only, all in µg/mL.

These recorded examples may help you get a feel for the data.
compound	CC50 at 48 h, µg/mL
CCCC1Oc2cccnc2N(O)C1=O (stereo not drawn)	202
CC1Oc2ccccc2N(O)C1=O (stereo not drawn)	274
C[C@@H]1[C@H](O)[C@@H](C)/C=C/C=C/C=C/C=C/C=C/C=C/C=C/[C@H](O[C@@H]2O[C@H](C)[C@@H](O)[C@H](N)[C@@H]2O)C[C@@H]2O[C@](O)(C[C@@H](O)C[C@@H](O)[C@H](O)CC[C@@H](O)C[C@@H](O)CC(=O)O[C@H]1C)C[C@H](O)[C@H]2C(=O)O [ANFO, Amphotericin B, reference compound]	89.3

Shift focus to the following entry.
QUERY: Report measured CC50 at 48 h; entry is CCC1Oc2ccccc2N(O)C1=O (stereo not drawn)
RESULT: 106

* * *

Test system: Leishmania (L.) infantum (MHOM/BR/74/PP75) promastigotes
Experiment: Anti-promastigote activity, MTT colorimetric assay
Type: cell-based
Conditions: promastigotes, RPMI-1640 medium, 48 h, 25°C, MTT; read-out: IC50 L. infantum RPMI-1640
Each item that follows carries a reported IC50.
Your answer should be a plain number; it is taken to be in µg/mL.

Reference set (5 entries):
compound	units text	IC50
O=C1COc2cccnc2N1O [Pyr1]	µg/mL	103
CCCCC1Oc2cccnc2N(O)C1=O (stereo not drawn) [Pyr5]	µg/mL	143
O=C1COc2ccccc2N1O [Bex1]	µg/mL	188
CCCC1Oc2cccnc2N(O)C1=O (stereo not drawn) [Pyr4]	µg/mL	95
CCC1Oc2cccnc2N(O)C1=O (stereo not drawn) [Pyr3]	µg/mL	160

# ---- query compound ----
QUERY: Recall the reported IC50 of CCC1Oc2ccccc2N(O)C1=O (stereo not drawn) [Bex3] when tested on Leishmania (L.) infantum (MHOM/BR/74/PP75) promastigotes.
RESULT: 93

* * *

Tested on: Leishmania (L.) infantum (MHOM/BR/74/PP75) promastigotes
Test: Anti-promastigote activity, MTT colorimetric assay
Format: cell-based
Conditions: promastigotes, RPMI-1640 medium, 48 h, 25°C, MTT; read-out: IC50 L. infantum RPMI-1640
Some molecules, each annotated with its measured IC50.
Lab book: enter the figure in µg/mL, no units written.

QUERY: Respond only with IC50 recorded for C[C@@H]1[C@H](O)[C@@H](C)/C=C/C=C/C=C/C=C/C=C/C=C/C=C/[C@H](O[C@@H]2O[C@H](C)[C@@H](O)[C@H](N)[C@@H]2O)C[C@@H]2O[C@](O)(C[C@@H](O)C[C@@H](O)[C@H](O)CC[C@@H](O)C[C@@H](O)CC(=O)O[C@H]1C)C[C@H](O)[C@H]2C(=O)O [ANFO, Amphotericin B, reference compound]
RESULT: 41.5

QUERY: Using known records, supply IC50 for CC1Oc2ccccc2N(O)C1=O (stereo not drawn)
RESULT: 111

QUERY: Give me measured IC50, please, for this molecule: CC1Oc2cccnc2N(O)C1=O (stereo not drawn)
RESULT: 118
